Where these numbers come from: patent US11447531B2

target: pepsin or simulated human gastric fluid (SGF) (Sus scrofa, UniProt P00791); construct: purchased Sigma P6887; format: biochemical
Sequence (P00791 60-385): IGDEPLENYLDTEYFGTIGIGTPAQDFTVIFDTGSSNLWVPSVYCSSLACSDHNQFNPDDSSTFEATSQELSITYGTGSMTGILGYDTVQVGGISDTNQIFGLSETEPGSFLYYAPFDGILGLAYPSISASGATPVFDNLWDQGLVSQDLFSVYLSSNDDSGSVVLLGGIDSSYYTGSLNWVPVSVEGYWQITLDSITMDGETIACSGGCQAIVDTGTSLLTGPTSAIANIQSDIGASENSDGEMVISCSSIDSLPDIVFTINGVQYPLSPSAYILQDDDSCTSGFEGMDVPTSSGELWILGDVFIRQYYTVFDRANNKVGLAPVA
Response field label: string, one of 1 (% of Max Slope, Y strictly below 80%) or 0.

Quick check: does ALKLFVGS (cleavable linker) have % of Max Slope, Y under 80%? 0

Quick check: does LKLFVGS (cleavable linker) have % of Max Slope, Y under 80%? 1

Quick check: does LRLFVGS (cleavable linker) have % of Max Slope, Y under 80%? 1

Quick check: does LFVRLRGS (cleavable linker) have % of Max Slope, Y under 80%? 1

Quick check: does IFVALKGS (cleavable linker) have % of Max Slope, Y under 80%? 0

Quick check: does LFVALKGS (cleavable linker) have % of Max Slope, Y under 80%? 1
